- method notes: Cmax in Beagle dog at 10 mg/kg, po
- Format: ADME, organism-based, Canis lupus familiaris
- Parameters: dose 10 mg/kg, route oral
- condition details: in vivo
observed property: Cmax (µM)
Record the value in µM, omitting the unit from your answer.

-- ask Cmax for COc1ccc(C(=O)N2CCN(c3ccccn3)CC2)cc1C#Cc1ccccn1 ?
-- reply 16.4

###

- method notes: Half life in rat liver microsomes
- Assay type: ADME, Microsome
The following molecules are shown together with reported log10(half-life) values.
Form field - Quantity: half-life; Unit: min; Scale: log10

-- ask Look at this molecule and give its reported log10(half-life). Cc1ccc(C(=O)N2CCN(c3ccccn3)CC2)cc1C#Cc1ccccc1
-- reply 1.11

-- ask Queued: COc1ccc(C(=O)N2CCN(c3ccncn3)CC2)cc1C#Cc1ccccc1
-- reply 1.32

-- ask Now consider Cc1ccc(N2CCN(C(=O)c3cccc(C#Cc4ccccc4)c3)CC2)nc1 .
-- reply 1.11

-- ask Now give it for Nc1cccc(C#Cc2cccc(C(=O)N3CCN(c4ccccn4)CC3)c2)c1 too.
-- reply 0.30

-- ask Also need COc1ccc(C(=O)N2CCN(c3cnccn3)CC2)cc1C#Cc1ccccc1 , thanks.
-- reply 0.70

-- ask Repeat for the following molecule: Cc1ccc(C#Cc2cccc(C(=O)N3CCN(c4ccccn4)CC3)c2)cc1
-- reply 0.70

###

- method notes: Clearance in Sprague-Dawley rat at 2 mg/kg, iv
- Type: ADME, organism-based
- Set-up: dose 2 mg/kg, route intravenous
- condition details: in vivo
observed property: clearance (mL/min/kg)
Just the number in mL/min/kg, nothing appended.

-- ask Given the entry COc1ccc(C(=O)N2CCN(c3ccccn3)CC2)cc1C#Cc1ccccn1 , report its measured clearance.
-- reply 12

###

- method notes: Half life in rat liver microsomes
- Format: ADME, Microsome
Each entry below carries its reported half-life.
Supply the numeric figure in min, leaving out any unit text.

* COc1ccc(C#Cc2cccc(C(=O)N3CCN(c4ccccn4)CC3)c2)cc1 | 4
* COc1ccc(C(=O)N2CCN(c3ccc(C)cn3)CC2)cc1C#Cc1ccccc1 | 16

-- ask I would be grateful if you could share the reported half-life for COc1ccc(C(=O)N2CCN(c3ccccn3)CC2)cc1C#Cc1nccs1 .
-- reply 15

-- ask Input O=C(c1cccc(C#Cc2ccccc2)c1)N1CCN(c2ccncn2)CC1
-- reply 3

-- ask Then COc1ccc(C(=O)N2CCN(c3ccccn3)CC2)cc1C#Cc1ccccn1 ?
-- reply 23
